- assay system: human ether-à-go-go-related gene (hERG) potassium channel (human, UniProt Q12809);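 also: peak tail current of the secondary pulse compared with the same well before compound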
- Sequence (Q12809 whole entry, looked up): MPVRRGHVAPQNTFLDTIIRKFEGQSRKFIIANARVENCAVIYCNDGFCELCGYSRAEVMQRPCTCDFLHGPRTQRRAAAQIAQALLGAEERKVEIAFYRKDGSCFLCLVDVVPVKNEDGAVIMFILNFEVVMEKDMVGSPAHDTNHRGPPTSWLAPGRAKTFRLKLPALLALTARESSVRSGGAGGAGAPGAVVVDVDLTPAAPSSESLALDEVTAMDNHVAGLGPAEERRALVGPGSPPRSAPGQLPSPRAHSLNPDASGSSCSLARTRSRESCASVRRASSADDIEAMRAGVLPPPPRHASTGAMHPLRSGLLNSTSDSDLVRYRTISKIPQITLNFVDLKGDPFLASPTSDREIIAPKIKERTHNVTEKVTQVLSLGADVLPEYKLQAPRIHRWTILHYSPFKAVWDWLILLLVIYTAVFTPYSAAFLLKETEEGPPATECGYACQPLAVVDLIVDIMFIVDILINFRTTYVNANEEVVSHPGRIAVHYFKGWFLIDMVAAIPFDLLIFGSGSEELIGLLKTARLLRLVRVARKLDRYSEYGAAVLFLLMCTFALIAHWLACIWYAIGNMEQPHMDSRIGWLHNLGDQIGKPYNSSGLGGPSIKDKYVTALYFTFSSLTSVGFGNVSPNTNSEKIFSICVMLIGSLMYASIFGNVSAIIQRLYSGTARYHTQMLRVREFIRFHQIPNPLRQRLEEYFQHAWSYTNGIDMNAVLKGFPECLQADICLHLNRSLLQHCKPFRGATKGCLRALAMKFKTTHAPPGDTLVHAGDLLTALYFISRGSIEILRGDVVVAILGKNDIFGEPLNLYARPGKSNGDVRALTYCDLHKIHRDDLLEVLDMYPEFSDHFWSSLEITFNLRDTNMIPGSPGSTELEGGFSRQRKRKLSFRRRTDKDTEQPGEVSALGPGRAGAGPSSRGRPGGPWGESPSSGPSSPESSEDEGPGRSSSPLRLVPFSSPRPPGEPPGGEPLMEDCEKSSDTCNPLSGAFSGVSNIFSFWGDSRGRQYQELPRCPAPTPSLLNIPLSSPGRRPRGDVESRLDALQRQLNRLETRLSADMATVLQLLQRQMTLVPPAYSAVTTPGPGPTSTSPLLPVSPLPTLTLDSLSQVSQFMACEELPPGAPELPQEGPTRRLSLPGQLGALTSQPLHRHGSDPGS
- assay explanation: primary screen, population patch clamp on CHO cells stably expressing hERG; higher = less effect of the substance
Out of some 310,000 compounds screened, about 14,000 (4.5%) showed an effect of 50% or more. The effect is printed as a negative number. What follows is part of a selection rich in strong results, with near analogues and random picks from the rest.
The entries below come with measured hERG current change (%, negative = inhibition) at 10uM values attached.
property measured: hERG current change (%, negative = inhibition) at 10uM (%)

[
  {
    "compound": "Cc1cccc(-c2nn(-c3ccccc3)cc2C(=O)NCC(c2cccs2)N2CCOCC2)c1 (stereo not drawn)",
    "unit label": "%",
    "reported value": -4.33
  },
  {
    "compound": "CCCCNC(=S)N(C)/N=C/c1ccc(OCC(=O)Nc2ccc(OC)cc2)c(OC)c1",
    "unit label": "%",
    "reported value": -4.23
  },
  {
    "compound": "CC(C)N1CCC2(CC1)N=C(c1ccc3c(c1)OCO3)CC(c1cc(Cl)ccc1O)N2 (stereo not drawn)",
    "unit label": "%",
    "reported value": -67.1
  },
  {
    "compound": "O=C1C2ON(c3ccccc3)C(c3cccnc3)C2C(=O)N1c1ccccc1 (stereo not drawn)",
    "unit label": "%",
    "reported value": 18.1
  },
  {
    "compound": "CCC1(C)N=C(c2ccc3c(c2)OCO3)CC(c2ccccc2O)N1 (stereo not drawn)",
    "unit label": "%",
    "reported value": 2.42
  },
  {
    "compound": "O=C1C2ON(c3ccccc3)C(c3cccnc3)C2C(=O)N1c1ccc(Cl)c(Cl)c1 (stereo not drawn)",
    "unit label": "%",
    "reported value": 10.5
  },
  {
    "compound": "O=C1C2ON(c3ccccc3)C(c3cccnc3)C2C(=O)N1Cc1ccccc1 (stereo not drawn)",
    "unit label": "%",
    "reported value": -50.8
  },
  {
    "compound": "COC(=O)C(C)n1cnc2c(nnn2-c2ccc(C)cc2)c1=O (stereo not drawn)",
    "unit label": "%",
    "reported value": -10.6
  },
  {
    "compound": "COCC(C)NC(=O)/C(=C/c1ccccc1)c1ccccc1 (stereo not drawn)",
    "unit label": "%",
    "reported value": -25
  }
]
